Test system: IGROV-1
Assay: NCI tumour cell line growth inhibition, 48 h
Active and inactive are the calls of the source. Cut-off read from the data, not from the text of the source: active = GI50 up to about 1.1 µM and inactive = higher.
Provide the reported GI50 of each item.

// query Reported GI50 for O=C(COc1ccc(Cl)cc1)N1N=C(c2ccc(Cl)cc2)CC1(O)c1ccccc1 (stereo not given) : what is it?
// result 18.5 µM (inactive)

// query Param item: CCCCCCN1C(=O)CC(=O)N(CCCCCC)S1(=O)=O
// result 12.4 µM (inactive)

// query Query O=C(O)C1=NN(c2ccc(S(=O)(=O)O)cc2)C2(C1)C(Cl)C(=O)N2c1nc2ccccc2s1 (stereo not given) next
// result 7.83 µM (inactive)

// query Entry to check: Cc1ccc(C)c(N2C(=O)C(=O)C(c3nc4ccccc4o3)C(=O)C2=O)c1
// result 35.9 µM (inactive)

// query Thanks! And CCOc1ccc(/N=N/c2c(-c3ccccc3)nn(C(=O)CC(=O)Nc3cccc(C)c3)c2-c2ccccc2)cc1 ?
// result > 100 µM (inactive)

---

Tested on: TK-10
Test: NCI tumour cell line growth inhibition, 48 h
Activity calls are given as the source filed them. Rule as the data show it: active = GI50 up to about 1.1 µM and inactive = higher.
Give measured GI50 for each item. Keep answers brief.

// query // map CC1=C[C@H]2C[C@@]3(C)O[C@@H]([C@]4(C)CC[C@H]([C@@H](C)C(=O)O)OO4)CC3C(C)(C)[C@H]2CC1 (stereo partly specified) to recorded GI50 (system: TK-10)
// result 2.79 µM (inactive)

// query Another molecule to look at: NC(=S)N/N=C(/CC(=O)c1ccc([N+](=O)[O-])cc1)C(=O)Nc1ncc([N+](=O)[O-])s1
// result > 100 µM (inactive)

// query Please answer likewise for CCOC(C[Se]CC(OCC)OCC)OCC
// result 53.6 µM (inactive)

// query And then COC(=O)c1cc2c3ccccc3n(C(C)=O)c2cn1 , what is it?
// result 45.8 µM (inactive)

// query Please do the same for CCOC(=O)OC1(c2ccccc2)CCN(C)CC1 as well.
// result > 100 µM (inactive)

// query Do the same for CCC1=C(C=O)c2cc3[nH]c(cc4nc(c5c6[nH]c(cc1n2)c(C)c6C(=O)C5C(=O)OC)C(CCC(=O)OC)C4C)c(C)c3CC (stereo unspecified) please
// result > 100 µM (inactive)

// query Could you do the same for COc1ccc([C@H]2[C@@H]3CCc4ccccc4C3=NN2C(N)=S)cc1OC , please?
// result > 100 µM (inactive)

// query Now give it for N#CCCC1(CCC#N)CCCCCCC(CCC#N)(CCC#N)C(O)C1O (stereo unspecified) too.
// result > 100 µM (inactive)

// query // query: CN(C)C1COC2Cc3ccccc3C1O2 (stereo unspecified)
// result > 100 µM (inactive)

// query Same for CO[C@@H]1C[C@H]2[C@@H]3CC[C@H]([C@@H](C)COC(C)=O)[C@@]3(C)CC[C@@H]2[C@@]2(C)CC[C@H]3C[C@]312
// result > 10 µM (inactive)

// query // repeat for COc1ccccc1NC(=O)CC(=O)n1nc(-c2ccccc2)c(/N=N/c2ccccc2[N+](=O)[O-])c1-c1ccccc1 and report
// result > 100 µM (inactive)

// query Another: O=C(NC(=O)c1cc(-c2ccccc2)n[nH]1)c1ccccc1
// result > 100 µM (inactive)

// query Would you kindly repeat that for Nc1ccc(S(=O)(=O)NCCS(=O)(=O)O)cc1 ?
// result > 100 µM (inactive)

// query Also CC(C)(C)OC(=O)N1C(=O)OC[C@@H]2C=C[C@@H]21 , if possible.
// result > 100 µM (inactive)

// query Repeat for the following molecule: Clc1ccc2c(c1)[nH]c1c2nc2sccn21
// result > 100 µM (inactive)

// query Then this molecule: COc1cccc2nc3cc(C)c(C)cc3nc12
// result > 100 µM (inactive)

// query Quick one: CCCCCCCCCCCCCC(=O)OCC1OC(=O)C(O)C1O (stereo unspecified)
// result > 100 µM (inactive)

// query Then what about the molecule Cc1c2ccccc2c(C)n2c1nc1cc(Cl)c(Cl)cc12 ?
// result > 10 µM (inactive)

// query Now give it for C=CCN1C(=O)CS/C1=N\NC(=O)c1c(C)nc2sccn12 too.
// result > 100 µM (inactive)

// query Could you do the same for Cc1cc(N(CCOS(C)(=O)=O)CCOS(C)(=O)=O)ccc1/C=N/c1ccc(-c2nc(Cc3ccccc3)sc2C)cc1 , please?
// result 4.6 µM (inactive)

// query Next molecule: C[n+]1c2ccccc2c(C(=O)NC(CCCNC(=N)N)C(=O)O)c2ccccc21 (stereo unspecified)
// result > 100 µM (inactive)

---

System: Hs-578T
Test: NCI tumour cell line growth inhibition, 48 h
Calls of active or inactive are those of the source. Rule as the data show it: active = GI50 up to about 1.1 µM and inactive = higher.
Give one outcome, nothing more. List: 1 (active), -1 (inactive)

// query Per the records of this test, what outcome belongs to CCC(=O)N1NC(=O)C(CC)(CC)C1=O ?
// result -1

// query What about Cc1ccc(S(=O)(=O)N2CCCCN(S(=O)(=O)c3ccc(C)cc3)Cc3ccccc3OCCOCCOc3c4cccc3Cc3cccc5c3OCCOCCOc3ccccc3CN(S(=O)(=O)c3ccc(C)cc3)CCCN(S(=O)(=O)c3ccc(C)cc3)Cc3ccccc3OCCOCCOc3c(cccc3C4)Cc3cccc(c3OCCOCCOc3ccccc3C2)C5)cc1 ?
// result -1

// query Queued: O=C(O)c1ccc(NC(c2ccccc2)c2ccc3cccnc3c2O)cc1 (stereo unspecified)
// result -1

// query Would you mind doing CC1=COC(C)(C=C(C#N)C#N)CC1 (stereo unspecified) as well?
// result -1

// query What would you report for Cc1cccc2cc3ccc4ccccc4c3cc12 ?
// result -1

// query Repeat with CC12CCC(C(Br)(Br)C1=O)C2(C)C (stereo unspecified)
// result 1

// query How about this compound: N#CC1(C#N)C2CCCCC23OC(=N)C1(C#N)C(c1ccco1)O3 (stereo unspecified)
// result -1

// query Next entry: O=S(=O)(SC1=NCCN1)c1ccc2ccccc2c1
// result -1

// query Queued: O=C(O)C1CCCN1C(=O)c1cc(Cl)ccn1 (stereo unspecified)
// result -1

// query Follow-up item: Cc1ccc2c(c1)c1ccc3c(c1n2C)C(=O)C=CC3=O
// result -1

// query Another compound to check: O=C(O)C1=NN(c2ccc(S(=O)(=O)O)cc2)C2(C1)C(Cl)C(=O)N2c1nc2ccccc2s1 (stereo unspecified)
// result -1

---

Tested on: PC-3
Assay: NCI tumour cell line growth inhibition, 48 h
Active and inactive are the calls of the source. No stated cut-off is given here; in the data, active = GI50 up to about 1.1 µM and inactive = higher. Non-standard residues stand in square brackets, D forms with d. Residues, ends and D or L forms follow the SMILES beside them. ξ: configuration not given here. *: point of attachment. ξHyp = O=C(O)C1CC(O)CN1; Cbz = O=C(OCc1ccccc1)*
// one of Yes = active, No = inactive, no free text

// query Outcome? COC(=O)CCNC(=O)OCc1ccccc1
// result No

// query Would you mind doing COc1ccc2cc(CNCCCCCCCCNCc3ccc4cc(OC)ccc4c3)ccc2c1 as well?
// result No

// query Cool, now O=S(=O)(SC1=NCCN1)c1ccc2ccccc2c1
// result No

// query Moving on to the next compound: C[n+]1c2ccccc2c(C(=O)NC(CCCNC(=N)N)C(=O)O)c2ccccc21 (stereo unspecified)
// result No

// query Do the same for CC1Oc2c(c(=O)oc3ccccc23)[C@@]1(C)CC1C[C@H](C)C(=O)O1 (stereo partly specified) please
// result No

// query Param item: Cc1nnc(N)nc1/C=C\c1cccs1
// result No

// query Input Nc1nc(N)c2ncn(Cc3c(Cl)cccc3Cl)c2n1
// result No

// query Proceed to CCOCC(=O)N[C@H]1CCc2cc(OC)c(OC)c(OC)c2-c2ccc(OC)c(=O)cc21
// result Yes

// query Would you kindly repeat that for COC(=O)C1=C(C)NC(C)=C(C(=O)OC)C1c1ccc(N=O)cc1 ?
// result No

// query Follow-up item: CC1=CC(=O)/C(=C/NC(=S)c2ccccc2)C(=O)O1
// result No

// query // same read-out, input: NC(=O)CNC(=O)C1CC(O)CN1C(=O)OCc1ccccc1 (stereo unspecified) (Cbz-[ξHyp]-Gly-NH2)
// result No

---

Tested on: EKVX
Test: NCI tumour cell line growth inhibition, 48 h
The source made the active and inactive calls. Cut-off read from the data, not from the text of the source: active = GI50 up to about 1.1 µM and inactive = higher.
Your response should consist of one outcome taken from active, inactive

// query How was O=C(/C=C/c1cccc([N+](=O)[O-])c1)c1ccc([N+](=O)[O-])cc1 classified in this test?
// result inactive

// query Would you kindly repeat that for COC1C(O)CC(OC2CC(Oc3cc4cc5c(c(O)c4c(O)c3C)C(=O)[C@@H](OC3CC(OC4CC(OC6CC(C)(O)C(OC(C)=O)C(C)O6)C(O)C(C)O4)C(O)C(C)O3)[C@H]([C@H](OC)C(=O)[C@@H](O)[C@@H](C)O)C5)OC(C)C2OC(C)=O)OC1C (some centres not stated) [CHROMOMYCIN] ?
// result active

// query Another molecule to look at: Cc1cc(N(CCOS(C)(=O)=O)CCOS(C)(=O)=O)ccc1/C=N/c1ccc(-c2nc(Cc3ccccc3)sc2C)cc1
// result inactive

// query # repeat for CO[C@H]1[C@@H](O)[C@@H](C)O[C@@H](O[C@H]2CC[C@@]3(C)[C@H](CC[C@@H]4[C@@H]3CC[C@]3(C)[C@@H](C5=CC(=O)OC5)[C@@H](OC(C)=O)C[C@]43O)C2)[C@@H]1O [NERITALOSIDE]
// result active

// query Check Cc1ccccc1OCC(COC(=O)Nc1ccccc1)OC(=O)Nc1ccccc1 (configuration not stated) too.
// result inactive

// query What about N#CC1(C#N)C2CCCCC23OC(=N)C1(C#N)C(c1ccco1)O3 (configuration not stated) ?
// result inactive

// query Further, for C/C(CC(O)(C(F)(F)Cl)C(F)(F)Cl)=N\Nc1ccccc1 ?
// result inactive

// query And for CC1CCc2c(sc3ncnc(N/N=C/c4ccc(Cl)cc4)c23)C1 (configuration not stated) ?
// result inactive

// query Query CN(C)C1C(=O)C(C(N)=O)=C(O)C2(O)C(O)=C3C(=O)c4c(O)cccc4C(C)(O)C3CC12 (configuration not stated) next
// result inactive

// query Cool, now CCOC(=O)OC1(c2ccccc2)CCN(C)CC1
// result inactive

// query Same thing, different molecule: O=C1c2ccccc2C(=O)[C@@]23O[C@@]12C1(Oc2cccc4cccc(c24)O1)[C@@H]1O[C@@H]1[C@@H]3O
// result inactive

// query Follow-up entry: CCOC(C)OC1CC(n2cc(C)c(=O)[nH]c2=O)OC1CO (configuration not stated)
// result inactive

// query What do you get for N#Cc1ccc(C2OCC3CC=CCC3CO2)cc1 (configuration not stated) ?
// result inactive

// query Likewise for O=C(/C=C/c1ccccc1)Oc1cccc(Br)c1 ?
// result inactive

// query Next record, please: C=C1CC[C@@H](C)[C@](C)(CCc2ccoc2)C/C=C\C=C/1C(=O)O
// result inactive

// query Then NC(N)=NCCC[C@H](N)C(=O)NCC(=O)N[C@@H](CC(=O)O)c1ncc(NC(=O)C(F)(F)F)o1 ?
// result inactive

// query Another molecule to look at: CC(=O)O[C@]12CCCCCCC1C1(O)C(O)CCC[C@H]12 (some centres not stated)
// result inactive
